System: Plasmodium falciparum
Assay: GSK_TCMDC: Inhibition of Plasmodium falciparum 3D7 in whole erythrocytes, using parasite LDH activity as an index of growth.
Assay type: functional, organism-based
Details: Plasmodium falciparum, 3D7
experimental_endpoint: XC50 (nM)
Use nM as the unit, but write only the number.

compound	measured_on	data_value
Cc1ncc(CN2CCC(C(=O)Nc3ccc(-c4nc5ccccc5o4)cc3)CC2)s1	Plasmodium falciparum	393
CC(C)CNCc1ccc(-c2cccc(CN(C(=O)NC3CCCCC3)C3CCN(Cc4ccccc4)CC3)c2)cc1	Plasmodium falciparum	805

So, O=C(NCC(c1ccc(C(F)(F)F)cc1)N1CCCC1)c1cc(-c2ccncc2)c(-c2cccc(O)c2)o1 (centres undefined) ? Its XC50 was 1060

So, `Cc1cccc2nc(-c3cccc(-c4ccc(C(=O)NCc5ccccc5S(C)(=O)=O)cc4)c3)[nH]c12` ? Its XC50 was 750

Hello, the source for this data is ChEMBL document CHEMBL1157539, in case you need it.
